Items are presented alongside their recorded melting point.
MEASUREMENT NAME: melting point

>>> result("O=[N+]([O-])c1c(-c2ccccc2)nn(CCCn2nc(-c3ccccc3)c([N+](=O)[O-])c2NCc2ccccc2)c1NCc1ccccc1")
"142 to 144 °C"
>>> result("COc1cc(O)c(C=NNC(=O)c2cc3ccccc3s2)c(OC)c1")
"205 °C"
>>> result("N#CC(NC(=O)c1ccnc(Cl)c1)c1cccs1 (stereo not given)")
"123 to 125 °C"
>>> result("O=C(O)CN(Cc1ccccc1)C(=S)CCc1nc2c(F)c(F)cc(F)c2s1")
"138 to 140 °C"
>>> result("C#CCNC(=O)C(F)(F)F")
"31 to 33 °C"
>>> result("O=C(O)c1cccc([N+](=O)[O-])c1Nc1ccccc1Cl")
"213 to 215 °C"
>>> result("CC1Nc2ccc(-c3cc(F)cc(C#N)c3)cc2C(C)(C)O1 (stereo not given)")
"163 to 164 °C"
>>> result("CC(C)(C)OC(=O)N1CCN(c2ccccc2O)CC1")
"115 to 117 °C"
>>> result("CN(C)CC1CCc2cc(NC(=O)c3ccc(-c4ccc(CO)cc4)cc3)ccc2C1 (stereo not given)")
"138 to 139 °C"
>>> result("CCOC(=O)C(C)(C)n1c(=O)[nH]c2c(OC)cccc2c1=O")
"144 to 145 °C"

###

MEASUREMENT NAME: melting point

>>> result("CN1CCCC(c2cccc(-n3cnc4cc(C(=O)OCC5CC5)ccc43)c2)C1 (stereo unspecified)")
"111 to 113 °C"
>>> result("CC(=O)NC[C@H]1CN(c2cc(F)c(C3CCNCC3)c(F)c2)C(=O)O1")
"125 to 126 °C"
>>> result("c1ccc(C(c2ccccc2)N2CCN(CCCCCCNc3ccc4ncnn4n3)CC2)cc1")
"130 to 132 °C"
>>> result("O=C1Nc2ccccc2Sc2cc(C(F)(F)F)ccc21")
"216 to 217 °C"
>>> result("CNc1ccc(-c2ccnc(-c3cn(C)c(=O)n3-c3ccc(C(C)(C)C#N)cc3)c2)cn1")
"191 °C"
>>> result("CCOc1ccc2nc(SC)c(C=O)cc2c1")
"124 to 125 °C"
>>> result("CC(=O)OC(C)c1ncnc(Cl)c1I (stereo unspecified)")
"55 to 58 °C"
>>> result("CN(c1ccc(O)cc1)c1cc2ccc(Cl)cc2cn1")
"140 °C"
>>> result("COc1ccccc1N1CCN(Cc2ccc(O)cc2)CC1")
"172 °C"
>>> result("CS(=O)(=O)c1ccc(C(CC2CCCC2)C(=O)Nc2nccs2)cc1 (stereo unspecified)")
"61 to 63 °C"
>>> result("Cn1ccc(=O)c(OCc2ccccc2)c1C(O)c1cccnc1 (stereo unspecified)")
"169 to 174 °C"
>>> result("CC(C)n1nc(-c2ncc(O)nc2-c2ccccc2)ccc1=O")
"225 to 227 °C"
>>> result("O=C1N=C(N2CCOCC2)SC1Cc1cccc(-c2ccc(O)c(C34CC5CC(CC(C5)C3)C4)c2)c1 (stereo unspecified)")
"129 to 131 °C"
>>> result("C[C@H](NC(=O)Nc1cccc(CC(=O)O)c1)C(=O)N1[C@@H](c2ccccc2F)SC[C@H]1C(=O)OC(C)(C)C")
"110 °C"
>>> result("O=c1c2[nH]nnc2nc2sc(CCc3ccccc3)nn12")
"295 to 296 °C"
>>> result("CCCc1ccc(C(=O)Nc2ccc3c(c2)CCCC3=O)cc1")
"168 to 170 °C"
>>> result("CCCCOc1cc(CCS(=O)(=O)NC(=O)OCC(C)C)n(Cc2ccc(Cl)cc2Cl)n1")
"114 to 116 °C"
>>> result("CN1CCN(S(=O)(=O)c2cccc(NC(=O)c3cnn4c(C(F)F)cc(-c5ccc(Cl)cc5)nc34)c2)CC1")
"147 °C"
>>> result("CC(=O)Nc1c2c(cc3c1CCC3)CCC2")
"257 to 259 °C"
>>> result("Cc1cnc(C)c(Oc2ccc(OCn3cnc(Cl)c3Cl)cc2)n1")
"84 to 85 °C"
>>> result("Cc1nn(C)c2c1N(C(=O)CN1CCCC1)c1ccccc1NC2=O")
"114 to 116 °C"
>>> result("CSc1c2n(c3ccccc13)CCC2N(O)C(N)=O (stereo unspecified)")
"178 °C"
>>> result("COc1ccccc1CC(=O)NCc1cccs1")
"84 °C"
>>> result("CCOCc1nc2c(N)nc(C)c(C)c2n1CCOCCCc1cncnc1")
"127 to 129 °C"
>>> result("COCOc1cc(OC)c(OC)cc1-c1c(C(=O)OC)[nH]c(C(=O)OC)c1-c1ccc(OC)c(OC)c1")
"162 to 163 °C"
>>> result("O=C1Nc2ccccc2C12CCCC2Br (stereo unspecified)")
"238 to 240 °C"
>>> result("Oc1cccc(Cc2cnc3c(-c4cc(-c5ccccc5)cs4)cnn3c2O)c1")
"235 to 237 °C"
>>> result("O=C1c2nc(O)ccc2C(=O)c2c(-c3ccccc3NC(=O)C(F)(F)F)ccnc21")
"> 260 °C"
>>> result("CC(C)(CO)Cc1ccc2cc(CC(C)(C)CO)ccc2c1")
"162 to 165 °C"
>>> result("CCOP(=O)(Cc1ccc(NC(=O)C2=Cc3cc(C4CCCCC4)ccc3CC2)cc1)OCC")
"137 to 138 °C"
>>> result("Cc1cc(Br)cc(-c2ccc3c(c2)C(C)(C)OC(=S)N3)c1")
"183 to 184 °C"
>>> result("COC(=O)C(=O)CC(=O)c1ccccn1")
"86 to 87 °C"
>>> result("O=C(O)CCC(=NO)c1ccc(-c2ccc(Cl)c(Cl)c2)cc1")
"166 °C"
>>> result("COCCOc1cccc(-c2ccnc3c(C(=O)c4cccs4)cnn23)c1")
"112 to 116 °C"
>>> result("C=CC(=O)Oc1cccc(O)c1O")
"92 to 95 °C"
>>> result("O=C(O)CN[C@H]1CCN(c2ccc3c(NC(=O)CC4CCCCC4)c(Cl)ccc3n2)C1")
"257 to 259 °C"
>>> result("COc1cc(COc2nn(-c3ccccc3)cc2C=O)ccc1OCc1csc(N2CCCCC2)n1")
"123 to 124 °C"
>>> result("CCOC(CCN(C(=O)c1cccs1)c1nc(-c2cc(-c3ccccc3)no2)cs1)OCC")
"100 to 101 °C"
>>> result("Cc1cc(O)c2c3c(oc(=O)c2c1)C(=O)c1c(O)cccc1C3=O")
"236 to 238 °C"
>>> result("Cc1ccc(S(C)(=O)=O)cc1-c1n[nH]c2nc(Oc3ccc(F)cc3F)ncc12")
"133 to 135 °C"
>>> result("Cc1nc2ncnn2c2c1CCN2CC(C)C")
"143 to 145 °C"
